# test.description: Phase 1 PK Part 1: relative bioavailability, dose proportionality, food effect of unmilled API tablet
# Assay type: in vivo, human
# experimental.conditions: human, plasma, oral, 10 mg, Treatment D: 1 × 10 mg Formulation Concept 1 (unmilled API tablet), after high-fat breakfast; mean; read-out: Cmax
metric: Cmax (ng/mL)
Value expressed in ng/mL; do not type the unit.

Query: Cmax; subject: Cc1cc(C)cc(C2CCCN2Cc2ccc(Oc3ccc(C(N)=O)cc3F)cc2)c1 (stereo not shown) [aticaprant]
37.7

###

# test.description: Plasma Cmax of aticaprant in subjects with MDD (Example 6)
# Format: in vivo
# experimental.conditions: human, oral, 10 mg, 10 mg once daily, Week 3, eITT, read-out: Cmax, Arithmetic Mean (SD)
metric: Cmax (ng/mL)
Quick note: give the figure in ng/mL, leave out the unit.

Would you mind telling me what Cmax value was observed for Cc1cc(C)cc(C2CCCN2Cc2ccc(Oc3ccc(C(N)=O)cc3F)cc2)c1 (stereo not shown) ?
33.5

###

# test.description: Phase 1 PK Part 2: relative bioavailability, dose proportionality, food effect of milled API tablet
# Format: in vivo, human
# experimental.conditions: human, plasma, oral, 10 mg, Food effect, completers; Treatment F (Reference): 1 × 10 mg milled API tablet, fasted; read-out: Geometric Mean Cmax
metric: Cmax

# lookup: Cmax of Cc1cc(C)cc(C2CCCN2Cc2ccc(Oc3ccc(C(N)=O)cc3F)cc2)c1 (stereo not shown)
31.3 ng/mL

###

# test.description: Phase 1 PK Part 1: relative bioavailability, dose proportionality, food effect of unmilled API tablet
# Type: in vivo, human
# experimental.conditions: human, plasma, oral, 5 mg, Treatment C: 1 × 5 mg Formulation Concept 1 (unmilled API tablet), fasting; median
# Excerpt: This is a Phase 1, open-label, single dose, multicenter, 4-part study in healthy adult participants. Potential participants will be screened from Day −28 to Day −2 to determine participants' eligibility for study participation. […] In Parts 1 and 2, plasma concentrations will be determined for aticaprant. […] The following plasma PK parameters of aticaprant will be determined. […]
metric: Tmax (h)
API: value field is a number in h; no unit string.

Tmax for Cc1cc(C)cc(C2CCCN2Cc2ccc(Oc3ccc(C(N)=O)cc3F)cc2)c1 (stereo not shown) ?
1.5

###

# test.description: Phase 1 PK Part 1: relative bioavailability, dose proportionality, food effect of unmilled API tablet
# Format: in vivo, human
# experimental.conditions: human, plasma, po, 10 mg, Treatment A: 2 × 5 mg oral capsule, fasting; mean; read-out: Cmax
# Text: This is a Phase 1, open-label, single dose, multicenter, 4-part study in healthy adult participants. Potential participants will be screened from Day −28 to Day −2 to determine participants' eligibility for study participation. […] In Parts 1 and 2, plasma concentrations will be determined for aticaprant. […] The following plasma PK parameters of aticaprant will be determined. […]
metric: Cmax (µg/mL)
Only the number, expressed in µg/mL, is required.

Could you tell me which Cmax is on file for Cc1cc(C)cc(C2CCCN2Cc2ccc(Oc3ccc(C(N)=O)cc3F)cc2)c1 (stereo not shown) ?
0.0312

###

# test.description: Phase 1 PK Part 2: relative bioavailability, dose proportionality, food effect of milled API tablet
# Assay type: in vivo, human
# experimental.conditions: human, plasma, po, 10 mg, Treatment E: 2 × 5 mg oral capsule, fasting; mean; read-out: Cmax
metric: Cmax
Please answer using a numeric value trailed by its unit.

Could you tell me which Cmax is on file for Cc1cc(C)cc(C2CCCN2Cc2ccc(Oc3ccc(C(N)=O)cc3F)cc2)c1 (stereo not shown) [aticaprant] ?
31.7 ng/mL

###

# test.description: Phase 1 PK Part 1: relative bioavailability, dose proportionality, food effect of unmilled API tablet
# Format: in vivo, human
# experimental.conditions: human, plasma, oral, 5 mg, Treatment C: 1 × 5 mg Formulation Concept 1 (unmilled API tablet), fasting; mean; read-out: AUC∞
metric: AUC(0-inf) (ng·h/mL)
Give the value, in units of ng·h/mL, as a plain number.

State the recorded AUC(0-inf) for this entry: Cc1cc(C)cc(C2CCCN2Cc2ccc(Oc3ccc(C(N)=O)cc3F)cc2)c1 (stereo not shown)
155

###

# test.description: Phase 1 PK Part 1: relative bioavailability, dose proportionality, food effect of unmilled API tablet
# Assay type: in vivo, human
# experimental.conditions: human, plasma, po, 10 mg, Treatment A: 2 × 5 mg oral capsule, fasting; median
metric: Tmax (h)
A number alone suffices; assume h.

Reported Tmax for Cc1cc(C)cc(C2CCCN2Cc2ccc(Oc3ccc(C(N)=O)cc3F)cc2)c1 (stereo not shown) : what is it?
1.5

###

# test.description: Phase 1 PK Part 2: relative bioavailability, dose proportionality, food effect of milled API tablet
# Assay type: in vivo, human
# experimental.conditions: Dose proportionality, completers; Treatment G (Test): 1 × 5 mg Formulation Concept 2, fasting, Dose Normalized to 10 mg
metric: Geometric Mean Cmax
Answers without a unit are incomplete; give the number and then its unit.

Quick one: Geometric Mean Cmax of Cc1cc(C)cc(C2CCCN2Cc2ccc(Oc3ccc(C(N)=O)cc3F)cc2)c1 (stereo not shown) ?
32.5 ng/mL

###

# test.description: Phase 1 PK Part 1: relative bioavailability, dose proportionality, food effect of unmilled API tablet
# Format: in vivo, human
# experimental.conditions: human, plasma, oral, 5 mg, Dose proportionality, completers; Treatment C (Test): 1 × 5 mg Formulation Concept 1, fasting, 5 mg dose normalized to 10 mg; read-out: Geometric Mean AUC∞
metric: AUC(0-inf) (ng·h/mL)
Provide the reading as a plain figure in ng·h/mL.

Consider the compound Cc1cc(C)cc(C2CCCN2Cc2ccc(Oc3ccc(C(N)=O)cc3F)cc2)c1 (stereo not shown) and give its measured AUC(0-inf).
299

###

# test.description: Phase 1 PK Part 1: relative bioavailability, dose proportionality, food effect of unmilled API tablet
# Type: in vivo, human
# experimental.conditions: human, plasma, oral, 5 mg, Treatment C: 1 × 5 mg Formulation Concept 1 (unmilled API tablet), fasting; mean
metric: half-life (h)
Your answer is read as h, so omit the unit and give the number.

Find the recorded half-life belonging to Cc1cc(C)cc(C2CCCN2Cc2ccc(Oc3ccc(C(N)=O)cc3F)cc2)c1 (stereo not shown) and report it.
24.7

###

# test.description: Phase 1 PK Part 2: relative bioavailability, dose proportionality, food effect of milled API tablet
# Type: in vivo, human
# experimental.conditions: human, plasma, oral, 10 mg, Treatment H: 1 × 10 mg Formulation Concept 2 (milled API tablet), after high-fat breakfast; mean; read-out: AUC∞
metric: AUC(0-inf) (ng·h/mL)
# number only, unit ng·h/mL dropped from output

Field request: AUC(0-inf) | item: Cc1cc(C)cc(C2CCCN2Cc2ccc(Oc3ccc(C(N)=O)cc3F)cc2)c1 (stereo not shown)
388

###

# test.description: Phase 1 PK Part 1: relative bioavailability, dose proportionality, food effect of unmilled API tablet
# Assay type: in vivo, human
# experimental.conditions: human, plasma, oral, 10 mg, Treatment D: 1 × 10 mg Formulation Concept 1 (unmilled API tablet), after high-fat breakfast; mean
metric: half-life (h)
# value in h; strip the unit string

Using the record for Cc1cc(C)cc(C2CCCN2Cc2ccc(Oc3ccc(C(N)=O)cc3F)cc2)c1 (stereo not shown) [aticaprant] , report its half-life.
24.5

###

# test.description: Phase 1 PK Part 2: relative bioavailability, dose proportionality, food effect of milled API tablet
# Format: in vivo, human
# experimental.conditions: human, plasma, oral, 10 mg, Treatment H: 1 × 10 mg Formulation Concept 2 (milled API tablet), after high-fat breakfast; median
metric: Tmax

What Tmax value was documented for this molecule, Cc1cc(C)cc(C2CCCN2Cc2ccc(Oc3ccc(C(N)=O)cc3F)cc2)c1 (stereo not shown) ?
2 h

###

# test.description: Phase 1 PK Part 1: relative bioavailability, dose proportionality, food effect of unmilled API tablet
# Format: in vivo, human
# experimental.conditions: human, plasma, po, 10 mg, Treatment A: 2 × 5 mg oral capsule, fasting; mean; read-out: AUC∞
metric: AUC(0-inf) (ng·h/mL)
# output: bare number, implied unit ng·h/mL

State the recorded AUC(0-inf) for this entry: Cc1cc(C)cc(C2CCCN2Cc2ccc(Oc3ccc(C(N)=O)cc3F)cc2)c1 (stereo not shown)
315

###

# test.description: Phase 1 PK Part 1: relative bioavailability, dose proportionality, food effect of unmilled API tablet
# Format: in vivo, human
# experimental.conditions: human, plasma, oral, 10 mg, Food effect, completers; Treatment D (Test): 1 × 10 mg Formulation Concept 1, after high-fat breakfast; read-out: Geometric Mean AUC∞
metric: AUC(0-inf) (ng·h/mL)
// note: answer is a bare numeric in ng·h/mL

State the recorded AUC(0-inf) for this entry: Cc1cc(C)cc(C2CCCN2Cc2ccc(Oc3ccc(C(N)=O)cc3F)cc2)c1 (stereo not shown)
413

###

# test.description: Phase 1 PK Part 1: relative bioavailability, dose proportionality, food effect of unmilled API tablet
# Assay type: in vivo, human
# experimental.conditions: human, plasma, oral, 10 mg, Treatment D: 1 × 10 mg Formulation Concept 1 (unmilled API tablet), after high-fat breakfast; mean; read-out: AUClast
metric: AUC(0-t) (ng·h/mL)
Answer in ng·h/mL, number only, no unit symbol.

Reported AUC(0-t), compound Cc1cc(C)cc(C2CCCN2Cc2ccc(Oc3ccc(C(N)=O)cc3F)cc2)c1 (stereo not shown) : ____
398
